# Target system: HLA-B*4501 (Homo sapiens, UniProt P01889, A329T/A65T/A93T/A95T/C349S/D138N/D201E/D98Y/E176V/E187L/E204Q/E69K/H137Y/K202T/L119W/N87E/Q56L/Q94N/R155S/R180D/S121R/S35A/S48T/V127L/V306I/V36M/W191S/Y140L/Y33H/Y91S)
# Assay comment: biochemical
# Assay type: binding
pIC50: −log10 of the molar value. Ends that are not written are not given here.
// reported pIC50 for each item listed
Measured quantity: pIC50

1) QEIRTFSFQL [NS2.184] = 6.42
2) TEVETYVLSI [M1.5] = 6.30
3) SEQAAEAMEV [M1.196] = 7.46
4) GERQNATEI [NP.17] = 6.52

* * *

// reported pIC50 for each item listed
# Target system: HLA-A*0101 (Homo sapiens, UniProt P04439, A114D/A174V/A182V/D101N/D185E/E176A/E190D/L180R/Q94H/R68K/S129P/T187R/V100A/V91M/W191G)
# Assay comment: biochemical
# Format: binding
pIC50: −log10 of the molar value. Ends that are not written are not given here.
Measured quantity: pIC50

1) LVSDGGPNLY [PB1.590] = 6.40
2) YSHGTGTGY [PB1.30] = 6.70

* * *

// reported pIC50 for each item listed
# Target system: HLA-A*0202 (Homo sapiens, UniProt P04439, D140Y/D185E/D98H/E176V/E277Q/G131W/G231S/I119L/I121R/I166T/I218V/L180W/L300P/L318F/N151K/N90K/P208A/P217A/Q67R/Q86G/Q94H/R138H/R169H/T345S)
# Assay comment: biochemical
# Assay type: binding
pIC50: −log10 of the molar value. Ends that are not written are not given here.
Measured quantity: pIC50

1. FQVDCFLWHV [NS1.9] = 8.40
2. GLFGAIAGFI [HA.345] = 9.40
3. FQGRGVFEL [NP.458] = 8.15
4. NMLSTVLGV [PB1.413] = 8.30

* * *

// reported pIC50 for each item listed
# Target system: HLA-B*4402 (Homo sapiens, UniProt P01889, A223V/A65T/A93T/A95T/D201E/D98Y/E176V/E187L/E204Q/E69K/G107R/H137Y/K202T/L105A/L119I/N104T/N87E/Q56L/Q94N/R106L/R155S/R180D/S101N/S121R/S35A/S48T/T118I/V36M/W191S/Y140D/Y91S)
# Assay comment: biochemical
# Assay type: binding
pIC50: −log10 of the molar value. Ends that are not written are not given here.
Measured quantity: pIC50

1. QEIRTFSFQL [NS2.184] = 6.99
2. TEVETYVLSI [M1.5] = 5.16
3. SEQAAEAMEV [M1.196] = 5.58

* * *

# Target system: HLA-B*0702 (Homo sapiens, UniProt P01889)
# Assay comment: biochemical
# Type: binding
pIC50: −log10 of the molar value. Ends that are not written are not given here.
Measured quantity: pIC50

1) LPRRSGAAGA [NP.172] = 8.70

* * *

# Target system: HLA-B*1801 (Homo sapiens, UniProt P01889, A329T/A93T/A95T/C349S/D201E/D54G/D98Y/E176V/E187T/E204Q/E69T/K202T/Q94N/R155S/R180L/S121R/V306I/Y140S/Y195H/Y33H/Y91S)
# Assay comment: biochemical
# Type: binding
pIC50: −log10 of the molar value. Ends that are not written are not given here.
// reported pIC50 for each item listed
Measured quantity: pIC50

1) SEQAAEAMEV [M1.196] = 5.72
2) QEIRTFSFQL [NS2.184] = 6.29
3) TEVETYVLSI [M1.5] = 6.87

* * *

# Target system: HLA-A*3002 (Homo sapiens, UniProt P04439, D101N/D140H/D185E/E176R/F33S/G80R/H175R/K168Q/Q94H/R138E/R41S/V100E)
# Assay comment: biochemical
# Format: binding
Ends that are not written are not given here.
Measured quantity: IC50

1. LVSDGGPNLY [PB1.590] = 57 nM
2. FYIQMCTEL [NP.39] = > 10000 nM
3. YSHGTGTGY [PB1.30] = 131 nM
4. FYRYGFVANF [PB1.496] = > 10000 nM

* * *

# Target system: HLA-A*2402 (Homo sapiens, UniProt P04439, D101N/D140Y/D185E/E176V/E190D/F33S/G103R/G107R/I119L/I121M/I306V/K335N/L105A/L180Q/L300P/N151K/N90K/Q86E/Q94H/R106L/R138H/R89G/T104I/T345S/V100E/W191G/Y123F)
# Assay comment: biochemical
# Assay type: binding
Ends that are not written are not given here.
Measured quantity: IC50 (nM)

1) FYRYGFVANF [PB1.496] = 17
2) FYIQMCTEL [NP.39] = 24

* * *

# Target system: HLA-B*4403 (Homo sapiens, UniProt P01889, A223V/A65T/A93T/A95T/D201E/D98Y/E176V/E187L/E204Q/E69K/G107R/H137Y/K202T/L105A/L119I/N104T/N87E/Q56L/Q94N/R106L/R155S/R180L/S101N/S121R/S35A/S48T/T118I/V36M/W191S/Y140D/Y91S)
# Assay comment: biochemical
# Format: binding
Ends that are not written are not given here.
Measured quantity: IC50 (µM)

1. TEVETYVLSI [M1.5] = 0.247
2. SEQAAEAMEV [M1.196] = 7.67
3. QEIRTFSFQL [NS2.184] = 0.431

* * *

# Target system: HLA-B*5301 (Homo sapiens, UniProt P01889, A329T/A93T/A95T/C349S/D201E/D98Y/E176V/E187L/E204Q/E69T/G107R/I218V/K202T/L105A/L119I/N104I/Q94N/R106L/R155S/R180L/S101N/S121R/S35A/S48A/T118I/V127L/V306I/V36M/Y140S/Y91F)
# Assay comment: biochemical
# Type: binding
Ends that are not written are not given here.
Measured quantity: IC50

1. LPRRSGAAGA [NP.172] = > 10 µM

* * *

# Target system: HLA-A*0206 (Homo sapiens, UniProt P04439, D140Y/D185E/D98H/E176V/E277Q/F33Y/G131W/G231S/I119V/I121R/I166T/I218V/L300P/L318F/N151K/N90K/P208A/P217A/Q86G/Q94H/R138H/R169H/T345S)
# Assay comment: biochemical
# Format: binding
pIC50: −log10 of the molar value. Ends that are not written are not given here.
Measured quantity: pIC50

1) GLFGAIAGFI [HA.345] = 5.60
2) FQGRGVFEL [NP.458] = 8.15
3) NMLSTVLGV [PB1.413] = 8.52
4) FQVDCFLWHV [NS1.9] = 9.00

* * *

# Target system: HLA-B*4001 (Homo sapiens, UniProt P01889, A65T/A93T/A95T/D138N/D98Y/E176V/E69K/N87E/Q56L/Q94N/R180L/S121R/S35A/S48T/T167S/V36M/W171L/Y33H/Y91S)
# Assay comment: biochemical
# Type: binding
Ends that are not written are not given here.
// reported IC50 for each item listed
Measured quantity: IC50 (nM)

1) TEVETYVLSI [M1.5] = 133
2) QEIRTFSFQL [NS2.184] = 135
3) GERQNATEI [NP.17] = 199
4) SEQAAEAMEV [M1.196] = 2670

* * *

// reported pIC50 for each item listed
# Target system: HLA-A*0201 (Homo sapiens, UniProt P04439, D140Y/D185E/D98H/E176V/E277Q/G131W/G231S/I119V/I121R/I166T/I218V/L300P/L318F/N151K/N90K/P208A/P217A/Q86G/Q94H/R138H/R169H/T345S)
# Assay comment: biochemical
# Type: binding
pIC50: −log10 of the molar value. Ends that are not written are not given here.
Measured quantity: pIC50

1) GLFGAIAGFI [HA.345] = 7.39
2) NMLSTVLGV [PB1.413] = 8.40
3) FQVDCFLWHV [NS1.9] = 8.40
4) FQGRGVFEL [NP.458] = 6.84

* * *

// reported IC50 for each item listed
# Target system: HLA-A*6801 (Homo sapiens, UniProt P04439, A269V/D185E/E176V/E277Q/E87N/F33Y/G231S/I121M/I166T/I218V/L180W/L300P/L318F/N151K/P208A/P217A/Q86R/R169H/T345S)
# Assay comment: biochemical
# Type: binding
Ends that are not written are not given here.
Measured quantity: IC50 (nM)

1. GTFEFTSFFY [PB1.488] = 100
2. VLRGFLILGK [PB2.690] = 1160
3. KLVGINMSKK [PB1.471] = 1610
4. SVQPTFSVQR [NP.407] = 84
5. SVQRNLPFER [NP.413] = 19
6. ASCMGLIYNR [M1.125] = 391
7. SFSFGGFTFK [PB2.322] = 60
8. KFLPDLYDYK [PA.104] = 507
9. RLFFKCIYRR [M2.45] = 88

These measurements were taken from paper PMC2856764.
